Target: T1, ALPI His homodimer (Homo sapiens, UniProt P09923)
T1 sequence (P09923 with tags, fused parts or gaps): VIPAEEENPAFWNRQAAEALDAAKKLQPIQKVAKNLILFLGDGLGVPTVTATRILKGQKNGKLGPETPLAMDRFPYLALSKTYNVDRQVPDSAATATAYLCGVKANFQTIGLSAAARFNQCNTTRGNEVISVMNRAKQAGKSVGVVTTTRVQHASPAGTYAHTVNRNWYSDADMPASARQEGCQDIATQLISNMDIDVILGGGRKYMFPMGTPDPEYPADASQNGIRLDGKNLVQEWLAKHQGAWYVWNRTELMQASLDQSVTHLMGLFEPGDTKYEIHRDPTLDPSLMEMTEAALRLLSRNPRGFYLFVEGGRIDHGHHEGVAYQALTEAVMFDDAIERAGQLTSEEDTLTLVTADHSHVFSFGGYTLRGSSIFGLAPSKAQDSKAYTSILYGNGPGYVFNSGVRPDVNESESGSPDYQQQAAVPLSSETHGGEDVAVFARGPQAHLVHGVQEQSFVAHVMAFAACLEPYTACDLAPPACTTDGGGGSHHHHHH
Experiment: ELISA binding to ALPI
Settings: 500 ng purified VHH
property_name: ELISA hALPI

Example entries begin here.
A12: ALPP targeting VHH domain, SEQ ID NO: 19 (protein) VHH: QVHLVECGGGSVQAGGFLRLSCAASGPSLSNYAMGRFRQAPGKEREFVAGISWGGGRTSYTDSVKGRFTISRDNAKNTVYLQMNNLEPEDTGVYYCAGRYGRGRNVEYEYDYWGQGTKVTVSS; No Binding
G03: ALPP targeting VHH domain, SEQ ID NO: 38 (protein) VHH: QVQLVESGGGTAQAGGSLRLACAASGRSVTMGWLGWVPRAERDDLEFITWFNWGTYYANSVNGRFTISTDNADNTVYPQMNRLKPENPAVYYCASFTGYRPLINRLNDVSDCGHGALVAVSS; No Binding
D08: ALPP targeting VHH domain, SEQ ID NO: 27 (protein) VHH: QVHLVESGGGSVQAGGSLRLSCAASGPSLSNYAMGWFRQAPGKEREFVAGISWGGGRTSYTDSVKGRFTISRDNAKNTVYLQMNNLKPEDTGVYYCAGRYGRGRNVEYEYDYWGQGTKVTVSS; No Binding
E11: ALPP targeting VHH domain, SEQ ID NO: 32 (protein) VHH: QVQLVESGGGSVQAGGSLRLSCAASGPSLSNFAMGWFRQPPGKEREFVAGISWGGGRTSYTDSVKGRFTISRDNAKNTVYLQMNNLKPEDTGVYYCAGRYGRGRNVEYEYDYWGQGTQVTVSS; No Binding
D10: ALPP targeting VHH domain, SEQ ID NO: 28 (protein) VHH: QVQLVESGGGLVQPGGSLRLSCAASGSIFSVNTMGWYRQAPGKQRDLVAVATSGGTIHYADSVKGRFTISRDNAKNTVYLQMNSLKPEDTAVYYCNLVVPYGMIAGDHDYWGQGTKVTVSS; No Binding

Qu. ELISA hALPI for E12: ALPP targeting VHH domain, SEQ ID NO: 33 (protein) VHH: QVQLVESGGGSVQAGGSLRLSCAASGPSISNFAMGWFRQAPGKEREFVAGISWGGGRTNYLDSVKGRFTISRDNAKNMVHLQMNSLKPEDTTVYYCAGRYGRGRDVEYEYDYWGQGTQVTVSS ?
Ans. No Binding

Qu. ELISA hALPI for C07: ALPP/ALPPL2 targeting VHH domain, SEQ ID NO: 25 (protein) VHH: QVQLVESGGGLVQAGESLRLACAASGTIFSGNAVGWYRQAPEKQREWVSSITDYGDTDYAEAVKGRFTISRDNAKNTVYLQMNSLKPEDTAVYYCYVYQRGESEEYWGQGTQVTVSS ?
Ans. No Binding

Qu. ELISA hALPI for A08: ALPP targeting VHH domain, SEQ ID NO: 18 (protein) VHH: QVQLVESGGGLVQAGESLRLACAASGTIFSGNAVGWYRQAPEKQREWVSSITDYGDTDYAEAVKGRFTISRDNAKNTVYLQMNSLKPEDTAVYYCYVYQRGESEEYWGQGTKVTVSS ?
Ans. No Binding

Qu. ELISA hALPI for B11: ALPP targeting VHH domain, SEQ ID NO: 22 (protein) VHH: QVHLVESGGGSVQAGGSLRLSCAASGPSLSNYAMGWFRQAPGKEREFVAGISWGGGRTSYTDSVKGRFTISRDNAKNTVYLQMNNLKPEDTGVYYCAGRYGRGRNVEYEYDYWGQGTQVTVSS ?
Ans. No Binding
